Test system: HCC44
measurement.notes: Cell viability dose-response, HCC44
Assay type: cell-based, human
condition.notes: Homo sapiens, HCC44, 12-point dose-response starting at 50 micromolar, 3-fold increments, in duplicate; read-out: toxicity data, HCC44
IC50 values for the molecules below.

molecule=COc1ccc(CCN(C)C(=O)NC(=O)c2ccc(C(=O)c3ccccc3)cc2)cc1 value_reported="≥ 49.5 µM"

Prompt: For the record COc1ccc(CCNC(=O)NC(=O)c2ccc(-c3cc4ccccc4c4ccccc34)cc2)cc1 , what value of IC50 is listed for HCC44?
Completion: ≥ 49.5 µM

Prompt: For the record COc1ccc(CCNC(=O)NC(=O)c2ccc(C(=O)NC3CCCC3)cc2)cc1 , what value of IC50 is listed for HCC44?
Completion: ≥ 49.5 µM

Prompt: For the record COc1ccc(CCNC(=O)NC(=O)c2ccc(-c3ccccc3)cc2)cc1 , what value of IC50 is listed for HCC44?
Completion: ≥ 49.5 µM

Prompt: For the record COc1ccc(CCC(=O)Nc2ccc(C(=O)c3ccccc3)cc2)cc1 , what value of IC50 is listed for HCC44?
Completion: ≥ 49.5 µM

Prompt: For the record COc1ccc(CCNC(=O)NC(=O)c2cccc(OC)c2)cc1 , what value of IC50 is listed for HCC44?
Completion: ≥ 49.5 µM
